These entries and their values trace back to patent US20260042834A1.

# SUBJECT_OF_TEST: T1, CRH (NT-Biotin) (human and mouse (same sequence), not fully specified; biotin at the N-terminus)
# T1 peptide: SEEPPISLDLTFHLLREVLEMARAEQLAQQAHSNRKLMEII
# ASSAY_COMMENT: ELISA, biotinylated CRH on streptavidin plate
VALUE_TYPE: pEC50
# pEC50: negative log10 of molar concentration; output just the value

PR006151 (antibody, human IgG1, kappa, V domains shown, PTM-removal variant of PR004290) VH: EVQLVESGGVLVQPGGSLRLSCAASGFTFSSYWMTWVRQAPGKGLEWVANIKQDSSEKYYVDSVKGRFTISRDNAKNSLFLQMNSLRAEDTAVYYCARTLIFDYWGQGTLVTVSS VL: DIVMTQSPLSLPVTPGEPASISCRSSQSLLHSTGYHSLEWYLQKPGQSPQLLIYLGSNRASGVPDRFSGSGSGTDFTLKISRVEAEDVGIYYCMQTLQTPITFGQGTRLEIKR :: 10.52
PR006149 (antibody, human IgG1, kappa, V domains shown, PTM-removal variant of PR004290) VH: EVQLVESGGVLVQPGGSLRLSCAASGFTFSSYWMTWVRQAPGKGLEWVANIKQDASEKYYVDSVKGRFTISRDNAKNSLFLQMNSLRAEDTAVYYCARTLIFDYWGQGTLVTVSS VL: DIVMTQSPLSLPVTPGEPASISCRSSQSLLHSTGYSSLEWYLQKPGQSPQLLIYLGSNRASGVPDRFSGSGSGTDFTLKISRVEAEDVGIYYCMQTLQTPITFGQGTRLEIKR :: 10.72

Next binder, please.
Value lookup for pEC50; key = PR006147 (antibody, human IgG1, kappa, V domains shown, PTM-removal variant of PR004290) VH: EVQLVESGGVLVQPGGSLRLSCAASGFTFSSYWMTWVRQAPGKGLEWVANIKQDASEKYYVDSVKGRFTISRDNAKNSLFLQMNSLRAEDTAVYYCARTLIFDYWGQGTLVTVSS VL: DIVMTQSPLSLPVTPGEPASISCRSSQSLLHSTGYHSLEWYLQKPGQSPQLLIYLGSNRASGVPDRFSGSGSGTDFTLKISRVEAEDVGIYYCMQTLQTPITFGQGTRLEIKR
10.64
